Hi there, I'd appreciate the recorded growth inhibition for every entry that follows.
assay: NCI Yeast Anticancer Drug Screen. Data for the cln2 rad14 strain (AID 165);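 also: 0% = growth equal to vehicle treated cultures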
experimental_parameters: S. cerevisiae cln2 rad14 strain, at 50.0 µM, active compounds read high
Compounds without any hit were thinned out: in the full panel of roughly 79,000, 15% have a hit.
Give bare numbers, in %.

For every item below, please supply its growth inhibition.
1. O=S1(=O)c2ccccc2C(=NO)c2ccccc21
2. Cc1cc(C)c2c(c1)sc1nncn12
3. COc1ccc2nc(-c3ccc(Cl)cc3)[nH]c2c1

1: 66; 2: 97.6; 3: -4

----------
assay: NCI Yeast Anticancer Drug Screen. Data for the mec2-1 strain (AID 157)
experimental_parameters: S. cerevisiae mec2-1 strain, at 50.0 µM (retest, dose inferred, filed as 5.0), active compounds read high
About 79,000 compounds went through this panel and 15% of them were active in at least one assay; those are over-represented in the sample as a whole.
metric_name: growth inhibition (%)
Numbers only, in %.

| molecule | metric_name | unit_label | experimental_value |
| --- | --- | --- | --- |
| O=C(O)/C=C/c1c2ccccc2cc2ccccc12 | growth inhibition | % | 98 |
| CC(C)(CC(=O)NNc1ccccc1)C(=O)O | growth inhibition | % | 61 |
| O=C1C=C(c2ccccc2)S(=O)(=O)c2c(O)cccc21 | growth inhibition | % | 100 |
| O=S(=O)(Nc1cccc(C2=NCCN2)c1)c1ccc2c(S(=O)(=O)Nc3cccc(C4=NCCN4)c3)cccc2c1 | growth inhibition | % | 2 |
| CN(C)CC(CN1CCCC1)C(=O)c1ccccc1 (configuration not stated) | growth inhibition | % | 36 |

For every item below, please supply its growth inhibition.
1. Nc1nc(-c2ccccc2)cc(-c2ccccc2O)n1
2. O=C(CC(=O)c1ccccc1)CC(=O)c1cccc(Cl)c1
3. O=C1/C(=C/c2ccc([N+](=O)[O-])cc2)CNC/C1=C\c1ccc([N+](=O)[O-])cc1
4. COc1ccccc1C1(c2ccccc2OC)OC(=O)c2ccccc21
5. CCCCCCCCCCCCCCCCCCNC(=S)/N=C/c1c(O)cc(C)oc1=O
6. CSC(=S)n1nc(-c2ccccc2)c(N=Nc2ccccc2[N+](=O)[O-])c1C
7. CCOC(=O)C(=Cc1ccccc1)C(=O)OCC

[15, 89, 99, 12, 38, 96, 91]

For every item below, please supply its growth inhibition.
1. CCN(CC)CCNc1ccc(C)c2oc3ccc(O)cc3c(=O)c12
2. Cc1c(Cl)ccc2c1NC(=O)C2(O)CC(=O)c1ccc(Cl)cc1 (configuration not stated)

[29, 99]

For every item below, please supply its growth inhibition.
1. N#CS/C(C(Cl)=C(Cl)Cl)=C(/Cl)[N+](=O)[O-]
2. COc1ccccc1NC(c1ccccc1)c1ccc2cccnc2c1O (configuration not stated)

[100, 60]

For every item below, please supply its growth inhibition.
1. O=c1c2ccccc2sc2c(CO)ccc(NCCN3CCCCC3)c12
2. O=C(CCCN1CCN2Cc3[nH]c4ccccc4c3CC2C1)c1ccc(F)cc1 (configuration not stated)

1. -21
2. 73

For every item below, please supply its growth inhibition.
1. CN(C)c1ccc(-c2c(C#N)c(S)n(NS(=O)(=O)c3ccccc3)c(=O)c2C#N)cc1
2. CN(C)/N=N/c1nc(Cc2ccccc2)[nH]c1C(N)=O
3. Cc1ccccc1NC(=O)C1C(=O)N(c2ccccc2C)C(=O)/C1=N/O (configuration not stated)
4. CCCCCCCCc1ccc2c3ccccc3c3ccccc3c2c1

1. 95
2. 99
3. 4
4. -5

For every item below, please supply its growth inhibition.
1. Cc1c2c(c(C)c3c1sc1ccccc13)CCN=C2
2. CCOC(=O)C(=O)CC1=Nc2ccccc2SC(c2cccc(C)c2)C1 (configuration not stated)
3. O=C(NCCCl)Nc1c2ccccc2nc2ccccc12
4. CCCCN(CCC(=O)O)c1ccc(/C=C\c2ccnc3ccccc23)cc1
5. O=c1cc2cccccc-2cc1O
6. COc1ccc(C(=O)c2cc(Cl)ccc2N)cc1
7. COc1ccc(C2=NN(c3ccccc3)C[N+](c3ccc(OC)cc3)=N2)cc1

[98, 98, 39, 89, 95, 87, 51]

For every item below, please supply its growth inhibition.
1. CCCCCCCCN(CCCCCCCC)CC(O)c1cc2c(c3ccccc13)CCCC2 (configuration not stated)
2. CCCCCCCCCCCCCCCCN(C)c1ccc(S(=O)(=O)O)cc1[N+](=O)[O-]
3. CCCCCCCCCCCCCCCCC#N
4. CCN(CCO)CC1OC(OC)C2OC(C)(C)OC12 (configuration not stated)

[96, 71, -4, 91]

For every item below, please supply its growth inhibition.
1. Nc1ccccc1Sc1ccccc1
2. CC(=O)O/C=C1\c2ccccc2CCC1c1ccc2ccccc2c1 (configuration not stated)
3. Clc1ccc(C2NC(c3ccccc3)c3c(ccc4ccccc34)O2)cc1 (configuration not stated)
4. Cc1ccc(Cl)cc1NC(=O)N(C)CCOC(=O)Nc1cccc(Cl)c1
5. Cn1c(=NCCc2ccccc2)oc2ccc(Cl)cc21
6. O=C(O)c1cccc(S(=O)(=O)NN2C(=O)CSC2c2c(O)ccc3ccccc23)c1 (configuration not stated)
7. O=c1oc2ccccc2c(O)c1/C=N/C(=S)NCc1ccccc1

[61, -13, 19, 97, 9, 50, -18]

----------
assay: NCI Yeast Anticancer Drug Screen. Data for the bub3 strain (AID 167)
experimental_parameters: S. cerevisiae bub3 mutant strain, at 50.0 µM
This is part of a sample that, as a whole, favours compounds with a hit. Of some 79,000 tested, about 15% had one in any assay. Active and inactive are the calls of the source. Cut-off read from the data, not from the text of the source: active = growth inhibition above about 70%; inactive = the rest.
Mark one answer only. Choices: true (1) (active), false (0) (inactive)

Use the examples below as a reference point.
| molecule | class |
| --- | --- |
| N#Cc1c(Cl)nsc1-c1ccc([N+](=O)[O-])cc1 | true (1) |
| CC(=O)Oc1ccc2c(c1)CCC1C2CCC2(C)C1CCC21CO1 (configuration not stated) | true (1) |
| C=Cc1ccccc1C1(O)C=CC(OC)(OC)C=C1 | false (0) |
| Cc1cc(O)ccc1N=Nc1ccccc1 | true (1) |
| CCCCCCCC/C=C\CCCCCCCC(=O)O (tested in a mixture with another compound) | true (1) |
| Cc1c(N)nc(C(CC(N)=O)NCC(N)C(N)=O)nc1C(=O)NC(C(=O)NC(C)C(O)C(C)C(=O)NC(C(=O)NCCc1nc(-c2nc(C(=O)NCCCNCCCc3ccccn3)cs2)cs1)C(C)O)C(OC1OC(CO)C(O)C(O)C1OC1OC(CO)C(O)C(OC(N)=O)C1O)c1cnc[nH]1 (configuration not stated) | true (1) |
| CCOC(=O)CC(=O)/C=C/c1ccncc1 | false (0) |
| Oc1ccc(N=Nc2ccc(Cl)cc2)cc1O | true (1) |
| Brc1ccc(-c2c3ccccc3cc3c2ccc2ccccc23)cc1 | false (0) |
| COc1cc2c(c(-c3cn(C)c4ccccc34)c1OC)OCO2 | true (1) |

Recorded test call requested for O=C(Nn1cc(F)c(=O)[nH]c1=O)C12CC3CC(CC(C3)C1)C2
true (1)

Recorded test call requested for O=S(=O)(Nc1ccccn1)c1ccc(N=Cc2c3ccccc3nc3cc(Cl)ccc23)cc1
false (0)

----------
assay: NCI Yeast Anticancer Drug Screen. Data for the mlh1 rad18 strain (AID 175)
experimental_parameters: S. cerevisiae mlh1 rad18 strain growth inhibition; at 5.0 µM (retest, dose inferred, filed as 0.5); active compounds read high
This is part of a sample that, as a whole, favours compounds with a hit. Of some 79,000 tested, about 15% had one in any assay.
Hi there, I'd appreciate the recorded growth inhibition for every entry that follows.
Answers are plain numbers, in %.

Worked cases, growth inhibition given:
| molecule | unit_label | growth inhibition |
| --- | --- | --- |
| O=C(O)CCC(=O)NNc1ccccc1 | % | 20 |
| O=C(Nc1ccccc1)OCCN=c1c2ccccc2ccc2ccccc12 | % | 5 |
| CC1=NN(c2ccccc2)C(=O)C12[C@H](c1ccccc1)C2(C#N)C#N (stereo partly specified) | % | 41 |
| O=C(C(=S)c1ccccc1)N(Cc1ccccc1)Cc1ccccc1 | % | 2 |
| Cc1cccc2ccc3cc(CC(=O)O)c4cccc(C)c4c3c12 | % | 36 |

Now for another entry.
GET /value?item= Fc1ccc(NC(=S)SCc2ccccc2)cc1F &field=growth inhibition returns 0

----------
assay: NCI Yeast Anticancer Drug Screen. Data for the mlh1 rad18 strain (AID 175)
experimental_parameters: S. cerevisiae mlh1 rad18 strain growth inhibition; at 50.0 µM (retest, dose inferred, filed as 5.0); active compounds read high
Procedure: Growth inhibition of yeast strains with defined genetic alterations is measured as a screen for potential anti-cancer activity. Selected strains with alterations in DNA damage repair or cell cycle control were exposed to compounds and growth inhibition was measured relative to vehicle treated controls. The strain used in this assay is mlh1 rad18
About 79,000 compounds went through this panel and 15% of them were active in at least one assay; those are over-represented in the sample as a whole.
metric_name: growth inhibition (%)
One number for each entry, in %.

Worked cases, growth inhibition given:
| molecule | growth inhibition, % |
| --- | --- |
| CCCCCCCCCCCCCCCCC#N | -5 |
| O=[N+]([O-])c1c(Br)ncn1Cc1ccccc1 | 94 |
| O=C(O)c1ccc(NC(c2ccccc2)c2ccc3cccnc3c2O)cc1 (stereo not given) | 98 |
| NC(=S)Nc1ccccc1O | 46 |
| Cc1ccc(Cl)cc1NC(=O)N(C)CCOC(=O)Nc1cccc(Cl)c1 | 98 |

For every item below, please supply its growth inhibition.
1. C/C(=N\NC(=S)Nc1ccc(N(C)C)cc1)c1ccccn1
2. O=C(CCCN1CCc2[nH]c3cc(F)ccc3c2C1)c1ccc(F)cc1
3. Nc1ccc(-c2nc3ccccc3s2)cc1
4. COc1ccc(-c2n[nH]c(C(F)(F)F)c2N=NN(C)C)cc1OC
5. CCCCC(CC)CN1C(=O)C2C3C=CC(C3)C2C1=O (stereo not given)

1: 78; 2: 99; 3: 98; 4: 99; 5: -15
